Data origin, for the record: patent US20210269525A1

Quick reference for upper right quadrant, percent of cells AF647+ / hTcRβ-PerCP+ among some binders
Biological target: T1, human CD3e (T-cell surface glycoprotein CD3 epsilon chain) (human, UniProt P07766 23-207)
T1 construct: Target of the anti-hCD3e antibodies on human PBMC, Jurkat cells and cells expressing human CD3e; on T cells it is part of the CD3/TCR complex; also called hCD3e; CD3e on human PBMC
Assay: flow cytometry, human PBMC, antibody 0.1 ug/mL, anti-human IgG Fc-Alexa Fluor647 (1:500), anti-hTcRβ-PerCP (1:30)
Enter your answer as a number in %; do not include the unit.

Illustrative cases are given below, each with its answer.
# binder, u, reported.value
records = [
    ("10A4-H3K1-IgG1-LALA (antibody, V domains shown, Humanized; human IgG1 with LALA mutations; also called H3K1 (humanized 10A4)) VH: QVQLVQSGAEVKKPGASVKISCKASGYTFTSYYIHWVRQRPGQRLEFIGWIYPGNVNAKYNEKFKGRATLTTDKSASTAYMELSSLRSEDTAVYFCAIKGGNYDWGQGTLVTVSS VL: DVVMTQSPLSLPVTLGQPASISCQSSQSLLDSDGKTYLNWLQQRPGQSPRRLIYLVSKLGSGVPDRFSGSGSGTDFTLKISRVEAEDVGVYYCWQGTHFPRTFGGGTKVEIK", "%", 55.6),
    ("10A4-H4K2-IgG1-LALA (antibody, V domains shown, Humanized; human IgG1 with LALA mutations; also called H4K2 (humanized 10A4)) VH: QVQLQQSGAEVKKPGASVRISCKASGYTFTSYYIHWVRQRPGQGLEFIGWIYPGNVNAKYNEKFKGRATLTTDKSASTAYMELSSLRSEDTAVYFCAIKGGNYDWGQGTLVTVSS VL: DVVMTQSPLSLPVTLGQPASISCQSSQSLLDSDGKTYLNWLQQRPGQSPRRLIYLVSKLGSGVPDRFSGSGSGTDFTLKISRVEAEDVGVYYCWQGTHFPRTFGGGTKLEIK", "%", 57.1),
    ("10A4-H1K1-IgG1-LALA (antibody, V domains shown, Humanized; human IgG1 with LALA mutations; also called H1K1 (humanized 10A4)) VH: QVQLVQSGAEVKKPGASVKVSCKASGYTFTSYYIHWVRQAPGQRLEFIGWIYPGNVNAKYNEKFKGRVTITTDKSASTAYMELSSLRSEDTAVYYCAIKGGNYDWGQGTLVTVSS VL: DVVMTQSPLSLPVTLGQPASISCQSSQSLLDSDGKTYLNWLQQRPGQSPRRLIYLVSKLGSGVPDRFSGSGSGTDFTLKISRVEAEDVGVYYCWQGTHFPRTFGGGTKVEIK", "%", 50.7),
    ("10A4-H1K2-IgG1-LALA (antibody, V domains shown, Humanized; human IgG1 with LALA mutations; also called H1K2 (humanized 10A4)) VH: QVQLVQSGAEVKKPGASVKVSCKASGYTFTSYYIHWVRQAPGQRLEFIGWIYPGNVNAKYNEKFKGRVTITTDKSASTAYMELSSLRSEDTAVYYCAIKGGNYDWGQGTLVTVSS VL: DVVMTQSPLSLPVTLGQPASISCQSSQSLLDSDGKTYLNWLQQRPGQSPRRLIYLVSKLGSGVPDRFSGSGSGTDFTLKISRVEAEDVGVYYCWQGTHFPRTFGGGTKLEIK", "%", 57.8),
    ("10A4-H3K2-IgG1-LALA (antibody, V domains shown, Humanized; human IgG1 with LALA mutations; also called H3K2 (humanized 10A4)) VH: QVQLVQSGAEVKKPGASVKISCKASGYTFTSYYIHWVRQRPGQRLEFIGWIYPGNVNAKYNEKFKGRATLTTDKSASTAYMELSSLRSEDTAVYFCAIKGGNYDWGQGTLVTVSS VL: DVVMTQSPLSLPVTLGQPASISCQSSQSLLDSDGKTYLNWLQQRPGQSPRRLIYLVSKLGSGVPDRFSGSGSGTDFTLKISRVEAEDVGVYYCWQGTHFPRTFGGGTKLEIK", "%", 61.3),
    ("10A4-H2K1-IgG1-LALA (antibody, V domains shown, Humanized; human IgG1 with LALA mutations; also called H2K1 (humanized 10A4)) VH: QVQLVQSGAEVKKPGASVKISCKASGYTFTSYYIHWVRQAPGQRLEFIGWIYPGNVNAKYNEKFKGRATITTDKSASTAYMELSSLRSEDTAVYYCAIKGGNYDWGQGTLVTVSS VL: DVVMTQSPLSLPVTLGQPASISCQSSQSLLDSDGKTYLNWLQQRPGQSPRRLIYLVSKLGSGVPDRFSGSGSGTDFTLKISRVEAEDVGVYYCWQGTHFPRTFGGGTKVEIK", "%", 59.4),
]

Inquiry: # query: upper right quadrant, percent of cells AF647+ / hTcRβ-PerCP+ of entry 10A4-H4K1-IgG1-LALA (antibody, V domains shown, Humanized; human IgG1 with LALA mutations; also called H4K1 (humanized 10A4)) VH: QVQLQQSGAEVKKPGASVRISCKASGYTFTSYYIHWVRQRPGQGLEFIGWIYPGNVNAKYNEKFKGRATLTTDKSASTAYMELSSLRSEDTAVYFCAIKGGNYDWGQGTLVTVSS VL: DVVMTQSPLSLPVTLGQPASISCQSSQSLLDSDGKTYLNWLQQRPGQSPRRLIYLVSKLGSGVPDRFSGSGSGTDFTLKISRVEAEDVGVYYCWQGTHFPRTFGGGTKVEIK
Reply text: 51.2

Inquiry: # query: upper right quadrant, percent of cells AF647+ / hTcRβ-PerCP+ of entry 10A4-H2K2-IgG1-LALA (antibody, V domains shown, Humanized; human IgG1 with LALA mutations; also called H2K2 (humanized 10A4)) VH: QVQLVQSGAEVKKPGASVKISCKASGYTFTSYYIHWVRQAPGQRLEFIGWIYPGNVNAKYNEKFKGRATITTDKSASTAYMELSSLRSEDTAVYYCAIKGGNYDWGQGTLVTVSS VL: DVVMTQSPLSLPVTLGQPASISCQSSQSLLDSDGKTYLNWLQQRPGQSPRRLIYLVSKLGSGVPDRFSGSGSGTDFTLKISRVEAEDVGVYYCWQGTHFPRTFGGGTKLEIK
Reply text: 53.3
